- assayNotes: Compound was tested for its solubility in 0.01 M aqueous NaH2PO4 initially at pH 7
- Type: ADME
- recordedConditions: 0.01 M aqueous NaH2PO4, pH 7
# solubility values compiled below
Answer format: numeric, µg/mL implied, no suffix.

C#CCN(Cc1ccc2nc(OC)nc(O)c2c1)c1ccc(C(=O)NC(CCC(=O)O)C(=O)O)cc1 (configuration not stated) ... 1200

Okay, now this molecule:
Param item = C#CCN(Cc1ccc2[nH]c(N)nc(=O)c2c1)c1ccc(C(=O)NC(CCC(=O)O)C(=O)O)cc1 (configuration not stated) ; retrieve measured solubility.
50

====

- experimentalTarget: Dihydrofolate reductase (Homo sapiens, UniProt P00374)
- Sequence (P00374 whole entry): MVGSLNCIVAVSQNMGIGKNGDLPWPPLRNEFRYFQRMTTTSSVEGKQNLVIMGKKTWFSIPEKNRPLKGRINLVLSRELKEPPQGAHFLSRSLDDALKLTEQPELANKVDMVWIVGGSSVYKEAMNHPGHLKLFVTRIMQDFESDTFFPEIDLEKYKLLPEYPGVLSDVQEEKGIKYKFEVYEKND
reportedProperty: Ki

Param item = COc1nc(O)c2cc(CNc3ccc(C(=O)NC(CCC(=O)O)C(=O)O)cc3)ccc2n1 (stereo unspecified) ; retrieve measured Ki.
~600 nM
